The following binders are shown together with reported Kd values.
Biological target: T1, mouse FGFR2b (mouse, UniProt P21803)
T1 chain: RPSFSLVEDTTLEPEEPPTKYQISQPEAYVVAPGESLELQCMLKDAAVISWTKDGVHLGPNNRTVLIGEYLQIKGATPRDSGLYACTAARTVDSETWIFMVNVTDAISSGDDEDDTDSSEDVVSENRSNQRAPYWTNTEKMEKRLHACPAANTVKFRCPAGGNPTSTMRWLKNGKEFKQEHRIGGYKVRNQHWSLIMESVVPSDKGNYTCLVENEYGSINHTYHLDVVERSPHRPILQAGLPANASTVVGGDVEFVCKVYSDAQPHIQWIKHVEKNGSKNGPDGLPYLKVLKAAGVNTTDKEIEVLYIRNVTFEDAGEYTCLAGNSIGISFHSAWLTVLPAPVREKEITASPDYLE
Assay: BLI
QUANTITY_NAME: Kd (nM)

INSERT INTO assay_data (binder, quantity_name, u, numeric_value) VALUES
  ('3B4 (antibody, V domains shown) VH: EVQLQQSGADLVKPGASVKMSCKASGYTFSYYNMHWVRRTPGQGLEWIGLIYPDNGDTSYNQKFKGKATLTADTSSSTAYMQLSSLTSEDSAVYYCARGGLDYWGQGTTLTVSS VL: DIQMIQSPASMSASVGETVTITCGASENIYGALNWYQRKQGKSPQLLIYGATNLADGMSSRFSGSGSGRQYSLKISSLHPDDVATYYCQNVLSTPYTFGGGTKLEMK', 'Kd', 'nM', 27.3),
  ('3H9 (antibody, V domains shown) VH: EIQLQQSGAELVKPGASVKMSCKASGYTFSFYNMHWVKRTPGQGLEWIGLIYPDNGDTSYNQKFKGKATLTADTSSSTAYMQLSSLTSEDSAVYYCARGGLDYWGQGTTLTVSS VL: DIVLTQSPASLSVSVGETVTITCRASENIYSNLAWYQQKQGKSPQLLVYAATNLADGVPSRFSGSGSGTQYSLKINSLQSEDFGSYYCQHFWGTPYTFGGGTKLELK', 'Kd', 'nM', 23.8);
